Observed pIC50, system h-e5’NT (Homo sapiens).
Numbers only, as −log10 of the molar value.

Study these solved cases before continuing.
In plain terms, `COc1ccc(CNC(=O)c2ccc3ncccc3c2)c(OC)c1` has a documented pIC50 of 6.00

Sample `Cc1ccc(CNC(=O)c2ccc3ncccc3c2)cc1` ; pIC50 observed: 6.72

For each of the molecules below, state pIC50.
1. Cc1ccc(F)cc1NC(=O)c1ccc2ncccc2c1
2. O=C(Nc1ccc(F)cc1F)c1ccc2ncccc2c1
3. O=C(Nc1ccccc1I)c1ccc2ncccc2c1 [Compound 4h, N-(2-iodophenyl)quinoline-6-carboxamide]

1: 6.33; 2: 6.27; 3: 6.41

###

I'd appreciate it if you could supply pIC50 values for the items below.
tgt: h-NTPDase3 (Homo sapiens)
Sequence (O75355 whole entry): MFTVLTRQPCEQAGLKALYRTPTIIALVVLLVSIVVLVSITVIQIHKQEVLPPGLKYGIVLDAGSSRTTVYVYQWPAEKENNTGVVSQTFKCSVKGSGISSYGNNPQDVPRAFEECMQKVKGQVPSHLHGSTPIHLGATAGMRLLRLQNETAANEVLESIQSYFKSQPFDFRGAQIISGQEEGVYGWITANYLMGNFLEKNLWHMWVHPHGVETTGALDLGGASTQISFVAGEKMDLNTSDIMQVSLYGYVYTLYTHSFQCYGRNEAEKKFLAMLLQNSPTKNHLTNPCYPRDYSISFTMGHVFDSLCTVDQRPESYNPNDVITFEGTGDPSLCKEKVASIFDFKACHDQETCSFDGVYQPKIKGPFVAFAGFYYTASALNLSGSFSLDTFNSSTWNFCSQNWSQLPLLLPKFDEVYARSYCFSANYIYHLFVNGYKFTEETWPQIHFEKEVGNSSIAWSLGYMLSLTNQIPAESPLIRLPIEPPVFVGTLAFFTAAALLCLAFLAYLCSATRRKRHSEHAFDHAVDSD
Numbers only, as −log10 of the molar value.

Consider the worked cases shown below.
`O=C(Nc1c(F)cccc1F)c1ccc2ncccc2c1` yielded pIC50 of 6.09

Measured pIC50 of O=C(Nc1ccccc1I)c1ccc2ncccc2c1 [Compound 4h, N-(2-iodophenyl)quinoline-6-carboxamide] : 6.06

So, Nc1c(S(=O)(=O)O)cc(Nc2ccc(Nc3nc(Cl)nc(Nc4cccc(S(=O)(=O)O)c4)n3)c(S(=O)(=O)O)c2)c2c1C(=O)c1ccccc1C2=O [Reactive blue 2, reference compound] ? Its pIC50 was 5.37

The recorded pIC50 for O=C(Nc1ccccn1)c1ccc2ncccc2c1 [Compound 4g, N-(pyridin-2-yl)quinoline-6-carboxamide] is 6.49

Data point: `Cc1ccc(CNC(=O)c2ccc3ncccc3c2)cc1` ; pIC50 = 6.17

Consider the additional compound presented here.
The reported pIC50 of the compound `O=C(NCc1ccc(F)cc1)c1ccc2ncccc2c1` was 6.46

###

Notes on pIC50 obtained with h-NTPDase1 (Homo sapiens).
Sequence (P49961 whole entry): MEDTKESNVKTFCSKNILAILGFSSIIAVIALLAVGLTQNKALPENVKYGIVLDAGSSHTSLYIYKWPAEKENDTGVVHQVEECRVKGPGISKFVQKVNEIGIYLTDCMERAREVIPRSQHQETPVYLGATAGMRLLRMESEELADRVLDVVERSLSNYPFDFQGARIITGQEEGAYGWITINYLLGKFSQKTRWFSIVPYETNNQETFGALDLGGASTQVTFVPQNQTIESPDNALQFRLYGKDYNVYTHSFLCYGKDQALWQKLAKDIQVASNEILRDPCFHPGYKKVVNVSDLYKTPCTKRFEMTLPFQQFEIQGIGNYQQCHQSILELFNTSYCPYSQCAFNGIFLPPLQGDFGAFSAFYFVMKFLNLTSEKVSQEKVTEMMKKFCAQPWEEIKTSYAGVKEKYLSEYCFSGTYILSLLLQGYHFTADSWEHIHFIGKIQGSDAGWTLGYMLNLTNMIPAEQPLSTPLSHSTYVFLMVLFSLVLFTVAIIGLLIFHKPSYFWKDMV
One number for each entry, as −log10 of the molar value.

Please review the entries below; each comes with its answer.
Kindly note the recorded pIC50 for `O=C(NCc1ccc(F)cc1)c1ccc2ncccc2c1` , which is 5.46

Entry O=C(Nc1ccccn1)c1ccc2ncccc2c1 [Compound 4g, N-(pyridin-2-yl)quinoline-6-carboxamide] , pIC50 reported as 6.21

GET /value?item= `Cc1ccc(CNC(=O)c2ccc3ncccc3c2)cc1` &field=pIC50 returns 5.21

// moving on: another record for pIC50
Memo: Nc1c(S(=O)(=O)O)cc(Nc2ccc(Nc3nc(Cl)nc(Nc4cccc(S(=O)(=O)O)c4)n3)c(S(=O)(=O)O)c2)c2c1C(=O)c1ccccc1C2=O [Reactive blue 2, reference compound] , reported pIC50: 4.79

###

tgt: h-NTPDase8 (Homo sapiens, UniProt Q5MY95)
Sequence (Q5MY95 whole entry): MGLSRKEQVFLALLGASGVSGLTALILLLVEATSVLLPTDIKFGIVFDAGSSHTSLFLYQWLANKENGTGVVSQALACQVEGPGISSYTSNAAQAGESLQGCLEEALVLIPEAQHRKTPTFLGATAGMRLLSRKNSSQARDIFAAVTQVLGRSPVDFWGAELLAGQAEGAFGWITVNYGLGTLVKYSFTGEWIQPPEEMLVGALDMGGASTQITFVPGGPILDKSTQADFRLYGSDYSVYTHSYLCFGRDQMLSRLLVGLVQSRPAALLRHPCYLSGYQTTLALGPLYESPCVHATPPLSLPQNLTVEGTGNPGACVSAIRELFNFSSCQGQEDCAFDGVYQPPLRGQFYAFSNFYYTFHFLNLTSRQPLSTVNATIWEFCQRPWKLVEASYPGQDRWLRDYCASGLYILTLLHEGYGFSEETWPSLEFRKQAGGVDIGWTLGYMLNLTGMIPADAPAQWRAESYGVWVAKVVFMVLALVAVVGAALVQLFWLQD
measurementProtocol: h-NTPDase activity assay
Type: biochemical
statedConditions: read-out: % Inhibition h-NTPDase8, at 100 µM
measurementName: inhibition at 100 µM (%)
Numbers only, in %.

The following molecules have reported results that may help.
For this molecule ( O=C(Nc1ccccc1I)c1ccc2ncccc2c1 [Compound 4h, N-(2-iodophenyl)quinoline-6-carboxamide] ), measured inhibition at 100 µM is 65.6

Quick note, inhibition at 100 µM for Cc1ccc(F)cc1NC(=O)c1ccc2ncccc2c1 [Compound 4l] landed at 26.1

Reported inhibition at 100 µM ( O=C(Nc1ccccn1)c1ccc2ncccc2c1 [Compound 4g, N-(pyridin-2-yl)quinoline-6-carboxamide] ) = 20.4

The molecule identified as Cc1ccc(CNC(=O)c2ccc3ncccc3c2)cc1 [Compound 4c] registered its inhibition at 100 µM at 70.9

Input O=C(Nc1c(F)cccc1F)c1ccc2ncccc2c1 [Compound 4d] . Output inhibition at 100 µM: 33

Notebook: COc1ccc(CNC(=O)c2ccc3ncccc3c2)c(OC)c1 [Compound 4i] , inhibition at 100 µM read as 29.8

Please give inhibition at 100 µM for each item listed below.
1. O=C(NCc1ccc(F)cc1)c1ccc2ncccc2c1 [Compound 4b]
2. O=C(Nc1ccc(I)cc1)c1ccc2ncccc2c1 [Compound 4k, N-(4-Iodophenyl)quinoline-6-carboxamide]
3. O=C(Nc1ccc(F)cc1F)c1ccc2ncccc2c1 [Compound 4e]

83
27
39.5

The measured values listed here are drawn from paper PMC13022283.
